Target or system: human Y4 receptor (human, UniProt P50391 1-375)
Sequence (P50391 whole entry): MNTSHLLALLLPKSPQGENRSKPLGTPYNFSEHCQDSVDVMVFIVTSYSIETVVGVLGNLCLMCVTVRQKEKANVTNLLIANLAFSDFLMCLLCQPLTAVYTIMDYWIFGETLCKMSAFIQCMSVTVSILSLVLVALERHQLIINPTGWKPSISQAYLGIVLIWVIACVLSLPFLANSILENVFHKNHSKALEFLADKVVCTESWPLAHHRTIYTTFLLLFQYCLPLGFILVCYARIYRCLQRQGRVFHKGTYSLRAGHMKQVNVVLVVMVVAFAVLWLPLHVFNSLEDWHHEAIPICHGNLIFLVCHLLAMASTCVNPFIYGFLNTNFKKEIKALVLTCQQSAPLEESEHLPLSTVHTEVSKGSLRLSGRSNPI
Method description: 125I-PP displacement
Observable: pIC50
Field pIC50 (float): negative decimal logarithm of the concentration in molar.

Example results:
[[record]]
binder = "PAPLEPEYPGDNATPEEMAKYAAELRRYINKLTRPRY [4058077]"
observable = "pIC50"
endpoint_result = 10.23

[[record]]
binder = "AAPLEPSYPGDNATPEQMAKYAAELRRYINKLTRPRY [4058148]"
observable = "pIC50"
endpoint_result = 10.29

[[record]]
binder = "PLEPSYPGDNATPEQMAKYAAELRRYINKLTRPRY [4058146]"
observable = "pIC50"
endpoint_result = 10.34

[[record]]
binder = "AAPLEPKYPGDNATPEQLAKYAAELRRYINKLTRPRY [4058166]"
observable = "pIC50"
endpoint_result = 10.25

[[record]]
binder = "AAPLEPVYPGDNATPEQLARYYSELRRYINKLTRPRY [4058298]"
observable = "pIC50"
endpoint_result = 10.14

[[record]]
binder = "4058071 (protein) CAPLEPTYPGDNATPEQMARYAAALRRYINKLTRPRYCAPLEPTYPGDNATPEQMARYAAALRRYINKLTRPRY"
observable = "pIC50"
endpoint_result = 9.84

[[record]]
binder = "PLEPKYPGDNATPEQLAKYAAELRRYINKLTRPRY [4058165]"
observable = "pIC50"
endpoint_result = 10.20

[[record]]
binder = "PAPLEPKYPGDNATPEQLAKYAAELRRYINKLTRPRY [4058168]"
observable = "pIC50"
endpoint_result = 10.32

[[record]]
binder = "PLEPKYPGDNATPEQMAKYAAELRRYINKLTRPRY [4058158]"
observable = "pIC50"
endpoint_result = 10.33


Turning now to a further binder:
Quickly give me recorded pIC50 for AAPLEPKYPGDNATPEQMAKYAAELRRYINKLTRPRY [4058159] 9.97
